molecular target: cytosolic proteasome in HEK293 T cells; experiment: cell-based or functional assay
Non-standard residues stand in square brackets, D forms with d. No end group written: not given here. dPra = C#CC[C@@H](N)C(=O)O; dDap = NC[C@@H](N)C(=O)O
Binary label based on In-Cellulo (flow cytometry with epoxomicin probe, HEK293 T cells) with cut-off 200 not printed: below gives satisfied, not below gives not satisfied.

Reference set, count: 3
{"binder": "cyclo(D[dL]F[dF]R[dA]) (SMILES CC(C)C[C@H]1NC(=O)[C@H](CC(=O)O)NC(=O)[C@@H](C)NC(=O)[C@H](CCCNC(=N)N)NC(=O)[C@@H](Cc2ccccc2)NC(=O)[C@H](Cc2ccccc2)NC1=O) [CyPPS8]", "class": "satisfied"}
{"binder": "cyclo(T[dPra]F[dF]R[dA]) (SMILES C#CC[C@H]1NC(=O)[C@H]([C@@H](C)O)NC(=O)[C@@H](C)NC(=O)[C@H](CCCNC(=N)N)NC(=O)[C@@H](Cc2ccccc2)NC(=O)[C@H](Cc2ccccc2)NC1=O) [CyPPS14]", "class": "not satisfied"}
{"binder": "cyclo(T[dL]F[dF]R[dA]) (SMILES CC(C)C[C@H]1NC(=O)[C@H]([C@@H](C)O)NC(=O)[C@@H](C)NC(=O)[C@H](CCCNC(=N)N)NC(=O)[C@@H](Cc2ccccc2)NC(=O)[C@H](Cc2ccccc2)NC1=O) [CyPPS1]", "class": "not satisfied"}

INPUT: Check if In-Cellulo (flow cytometry with epoxomicin probe, HEK293 T cells) falls below 200 not printed for cyclo(T[dV]F[dF]R[dA]) (SMILES CC(C)[C@H]1NC(=O)[C@H]([C@@H](C)O)NC(=O)[C@@H](C)NC(=O)[C@H](CCCNC(=N)N)NC(=O)[C@@H](Cc2ccccc2)NC(=O)[C@H](Cc2ccccc2)NC1=O) [CyPPS13] .
OUTPUT: satisfied

INPUT: Consider the binder TLFFRA (also: linear version of CyPPS1, D-residues not given here) [PPS1] . Is its In-Cellulo (flow cytometry with epoxomicin probe, HEK293 T cells) strictly less than 200 not printed?
OUTPUT: satisfied

INPUT: Strictly below 200 not printed: is that where In-Cellulo (flow cytometry with epoxomicin probe, HEK293 T cells) of cyclo(T[dL]F[dF]R[dDap]) (SMILES CC(C)C[C@H]1NC(=O)[C@H]([C@@H](C)O)NC(=O)[C@@H](CN)NC(=O)[C@H](CCCNC(=N)N)NC(=O)[C@@H](Cc2ccccc2)NC(=O)[C@H](Cc2ccccc2)NC1=O) [CyPPS23] sits?
OUTPUT: not satisfied
